test system: L1210 leukemia ip in BDF1 mice, survival T/C; experiment: NCI In Vivo Anticancer Drug Screen. Data for tumor model L1210 Leukemia (intraperitoneal) in B6D2F1 (BDF1) mice; settings: endpoint: mean survival time; dose: 400.0 mg/kg/injection; schedule: Q04DX003 (ip); vehicle: saline; higher = longer survival
Inconclusive results and toxic doses are left out.
Catalogue of compounds with associated T/C

Here are 3 compounds together with their reported answers.
• COC(=O)C1C2CC(=O)C(C2)C1C(=O)OC (stereo not drawn) = 96 % of control
• CCOC(=O)C1C(=O)CC(C)(O)C(C(=O)OCC)C1c1ccccc1 (stereo not drawn) = 94 % of control
• CCCCCCCOCc1ccccc1 = 97 % of control

Prompt: // map O=C(c1ccccc1)C1CCC1 to recorded T/C (system: L1210 leukemia ip in BDF1 mice, survival T/C)
Completion: 97 % of control

Prompt: // map CC12CCC(O)C(C)(C)C1=C(O)C(=O)C1=C2C(=O)CC2(C)C(=O)CCC12C (stereo not drawn) to recorded T/C (system: L1210 leukemia ip in BDF1 mice, survival T/C)
Completion: 98 % of control

Prompt: // map CC(=O)Nc1cc(C)c(Cl)cc1Cl to recorded T/C (system: L1210 leukemia ip in BDF1 mice, survival T/C)
Completion: 101 % of control

Prompt: // map CCOC(=O)CCSCC(C)(C)C(=O)OCC to recorded T/C (system: L1210 leukemia ip in BDF1 mice, survival T/C)
Completion: 103 % of control

Prompt: // map O=S(=O)(O)CCN(CCO)CCO to recorded T/C (system: L1210 leukemia ip in BDF1 mice, survival T/C)
Completion: 94 % of control

Prompt: // map N=C(N[N+](=O)[O-])N(CCC(=O)O)N=O to recorded T/C (system: L1210 leukemia ip in BDF1 mice, survival T/C)
Completion: 91 % of control

###

system: L1210 leukemia ip in BDF1 mice, survival T/C; test: NCI In Vivo Anticancer Drug Screen. Data for tumor model L1210 Leukemia (intraperitoneal) in B6D2F1 (BDF1) mice; settings: endpoint: mean survival time; dose: 400.0 mg/kg/injection; schedule: Q04DX002 (ip); vehicle: Klucel (hydroxypropylcellulose) (HPC); higher = longer survival
Toxic doses and inconclusive results are not listed.
endpoint_label: T/C

• O=[N+]([O-])c1cccc(/C=C/C=C/c2ccc(Cl)c(Cl)c2)c1 = 96 % of control
• COc1ccc([N+](=O)[O-])cc1NC(=O)Nc1cccc(C(F)(F)F)c1 = 96 % of control
• Cc1cccc(NC(=O)NC2CCCCC2)c1C = 86 % of control
• CCCCCCCCCCCCCCCCN1CCN(CCCCCCCCCCCCCCCC)CC1 = 101 % of control

Prompt: Look up T/C: O=S1(=O)CC(Cl)(Br)C1 (tested in a mixture with another compound)
Completion: 89 % of control

Prompt: Look up T/C: O=[N+]([O-])c1ccccc1Sc1ccc2c3c(cccc13)CN(CCCO)C2
Completion: 104 % of control

Prompt: Look up T/C: O=C(COc1cc(Cl)c(Cl)cc1Cl)Nc1ccc(Cl)cc1
Completion: 103 % of control

Prompt: Look up T/C: Cc1cc(C)c(NC(=O)Nc2ccccc2F)cc1C
Completion: 115 % of control

Prompt: Look up T/C: COc1ccc(/C=C2\N=C(c3cc(OC)c(OC)c(OC)c3)OC2=O)cc1
Completion: 88 % of control

Prompt: Look up T/C: Cc1cc(C)c(NC(=O)c2c(Br)c(Br)c(Br)c(Br)c2C(=O)O)c(C)c1
Completion: 87 % of control
